# System: A2780 cells
# Test description: cells
# Design: species or system 2008, C13*, A2780/CP; growth inhibition of human ovarian cancer cell lines after 72 h treatment, cell counts
# Run parameters: Homo sapiens, A2780, 72 h; read-out: 5-FU (µM) IC50
Measurement type: IC50 (µM)

1. O=c1[nH]cc(F)c(=O)[nH]1; 9.5
